- TEST DESCRIPTION: Blood pharmacokinetics after a single intraperitoneal dose
- Assay type: in vivo, male CD1 mice
- REPORTED CONDITIONS: male, CD1, mouse, in vivo; 10.4 mg/kg IP, blood, mean

MOLECULE | AUC(0-inf) [ng·h/mL]
COc1ccc(Cn2ccc3ccc(C(=O)NO)cc32)cc1 [UPHH-123] | 1950

====

- TEST DESCRIPTION: Blood pharmacokinetics after a single intraperitoneal dose
- Format: in vivo, male CD1 mice
- REPORTED CONDITIONS: male, CD1, mouse, in vivo, 52 mg/kg, 52 mg/kg IP, 1 hr; read-out: Blood Concentration, individual animal
- Experimental: The objective of this example was to investigate the blood pharmacokinetics of UPHH-123 in male CD1 mice following a single intraperitoneal dose administration. […] Blood samples (approximately 120 μL) were collected at pre-dose, 0.08, 0.25, 0.5, 1, 2, 4, 8 and 24 hr. […] All samples were processed for analysis by protein precipitation using acetonitrile (ACN) and analyzed with fit for purpose LC/MS/MS method (LLOQ: 10.04 ng/mL for UPHH-123 in blood). […]

MOLECULE | QUANTITY UNIT | concentration at 1 hr
COc1ccc(Cn2ccc3ccc(C(=O)NO)cc32)cc1 [UPHH-123] | ng/mL | 2280

====

- TEST DESCRIPTION: Blood pharmacokinetics after a single intraperitoneal dose
- Type: in vivo, male CD1 mice
- REPORTED CONDITIONS: male, CD1, mouse, in vivo; 10.4 mg/kg IP, blood, mean
- Procedure: The objective of this example was to investigate the blood pharmacokinetics of UPHH-123 in male CD1 mice following a single intraperitoneal dose administration. […] Blood samples (approximately 120 μL) were collected at pre-dose, 0.08, 0.25, 0.5, 1, 2, 4, 8 and 24 hr. […] All samples were processed for analysis by protein precipitation using acetonitrile (ACN) and analyzed with fit for purpose LC/MS/MS method (LLOQ: 10.04 ng/mL for UPHH-123 in blood). […]

ITEM SMILES | QUANTITY UNIT | AUC(0-t)
COc1ccc(Cn2ccc3ccc(C(=O)NO)cc32)cc1 | ng·h/mL | 1850

====

- TEST DESCRIPTION: Blood pharmacokinetics after a single intraperitoneal dose
- Format: in vivo, male CD1 mice
- REPORTED CONDITIONS: male, CD1, mouse, in vivo; 10.4 mg/kg IP, blood, mean

COMPOUND | Cmax, ng/mL
COc1ccc(Cn2ccc3ccc(C(=O)NO)cc32)cc1 [UPHH-123] | 3810

====

- TEST DESCRIPTION: Plasma pharmacokinetics after a single intraperitoneal dose
- Assay type: in vivo, male CD1 mice
- REPORTED CONDITIONS: male, CD1, mouse, plasma, intraperitoneal, 10 mg/kg, 10 mg/kg IP, 0.5 hr; read-out: Plasma Concentration, individual animal

COMPOUND | concentration at 0.5 hr
COc1ccc(Cn2ccc3ccc(C(=O)NS(C)(=O)=O)cc32)cc1 [UPHH-000171] | 45600 ng/mL

====

- TEST DESCRIPTION: Blood pharmacokinetics after a single intraperitoneal dose
- Type: in vivo, male CD1 mice
- REPORTED CONDITIONS: male, CD1, mouse, in vivo, 10.4 mg/kg, 10.4 mg/kg IP, 0.25 hr; read-out: Blood Concentration, individual animal

ITEM SMILES | concentration at 0.25 hr / ng/mL
COc1ccc(Cn2ccc3ccc(C(=O)NO)cc32)cc1 | 4440

From: patent US12606557B2
